tested.target: human-derived 11β-HSD1 (h11β-HSD1) enzyme (Homo sapiens)
Construct: expressed in transfected cells; host or cells: HEK-293 cells, transfected with Fugene 6
Sequence (P28845 whole entry): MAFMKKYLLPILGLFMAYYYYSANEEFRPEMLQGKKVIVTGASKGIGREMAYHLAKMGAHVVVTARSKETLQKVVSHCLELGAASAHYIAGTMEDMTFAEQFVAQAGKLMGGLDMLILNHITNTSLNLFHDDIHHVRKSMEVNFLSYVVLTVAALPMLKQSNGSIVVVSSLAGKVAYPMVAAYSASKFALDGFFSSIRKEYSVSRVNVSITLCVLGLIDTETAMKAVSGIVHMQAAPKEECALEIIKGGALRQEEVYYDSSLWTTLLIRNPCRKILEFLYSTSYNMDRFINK
test.method.notes: Cell assay on 11β-HSD1 (HEK-293 cells overexpressing h11β-HSD1, cortisone to cortisol, cortisol ELISA)
Assay type: cell-based
experimental.setup: HEK293; 10 μM compound; HEK-293 cells transfected with h11β-HSD1; read-out: hHSD1 inhibiting activity, % inhibition at 10 μM
test.readout: inhibition at 10 µM (%)
Field: numeric (%). Do not append units.

Notebook entry, human-derived 11β-HSD1 (h11β-HSD1) enzyme (Homo sapiens) assay: inhibition at 10 µM of O=C(N[C@H]1C2CC3CC1C[C@](O)(C3)C2)c1cccc(N2CCc3ccccc3C2)n1 [Example 60] = ? 68

Please state recorded inhibition at 10 µM (tested on human-derived 11β-HSD1 (h11β-HSD1) enzyme (Homo sapiens)) of Cc1ccc(C2CCN(c3cccc(C(=O)N[C@H]4C5CC6CC4C[C@](O)(C6)C5)n3)CC2)nc1 [Example 98] 38

Look up inhibition at 10 µM with human-derived 11β-HSD1 (h11β-HSD1) enzyme (Homo sapiens) for this molecule: C[C@@H]1CN(C2CCN(S(C)(=O)=O)CC2)CCN1c1cccc(C(=O)N[C@H]2C3CC4CC2C[C@](O)(C4)C3)n1 [Example 201] 40

Give the reported inhibition at 10 µM for C[C@@H]1CN(C2CC2)CCN1c1cccc(C(=O)N[C@H]2C3CC4CC2C[C@](O)(C4)C3)n1 [Example 196] (system: human-derived 11β-HSD1 (h11β-HSD1) enzyme (Homo sapiens)). 64

Record C[C@H]1CN(c2ccc(S(C)(=O)=O)cc2F)CCN1c1nccc(C(=O)N[C@H]2C3CC4CC2C[C@](O)(C4)C3)n1 [Example 284] : what is its inhibition at 10 µM with human-derived 11β-HSD1 (h11β-HSD1) enzyme (Homo sapiens)? 56

Requested read-out inhibition at 10 µM, target or system human-derived 11β-HSD1 (h11β-HSD1) enzyme (Homo sapiens), entry C[C@@H]1CN(c2ccc(OCC(N)=O)c(Cl)c2)CCN1c1cccc(C(=O)N[C@H]2C3CC4CC2C[C@](O)(C4)C3)n1 [Example 190] 76

Tell me reported inhibition at 10 µM for CC1CCCCN1c1cccc(C(=O)N[C@H]2C3CC4CC2C[C@](O)(C4)C3)n1 (stereo partly shown) [Example 61] , tested with human-derived 11β-HSD1 (h11β-HSD1) enzyme (Homo sapiens). 68
